experiment: recombinant UMI read abundance after kanamycin selection (control-corrected) (log10(CPM+1)); higher = more efficient recombination; extreme values may be limits of the assay; sequences stand for … in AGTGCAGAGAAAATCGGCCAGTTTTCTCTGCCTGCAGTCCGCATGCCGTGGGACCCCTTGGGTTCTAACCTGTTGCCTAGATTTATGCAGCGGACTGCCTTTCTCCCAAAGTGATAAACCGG…AGGTTGGTTTCACT; site = the 11-nt donor;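 note: IS621 bridge recombinase in Escherichia coli cells against a fixed T5 target plasmid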
Kindly state recombinant UMI read abundance (log10) for each of the entries shown.
Please reply with the value in numeric form only.

Form field: reported recombinant UMI read abundance (log10) of TTGCGGGCATGGACCGGTTTTCCCGGTAATCCGTATTTGTC (site TTGCGGGCTGA)
2.15

Form field: reported recombinant UMI read abundance (log10) of AATCTGGCATGGACCGGTTTTCCCGGTAATCCGTATTTGTA (site AATCTGGCTTA)
0.472

Form field: reported recombinant UMI read abundance (log10) of GATGTTCCATGGACCGGTTTTCCCGGTAATCCGTATTTGGT (site GCTGTTCCTAC)
0.00282

Form field: reported recombinant UMI read abundance (log10) of GCGAAAACATGGACCGGTTTTCCCGGTAATCCGTATTTGCA (site GCGAAAACTGG)
0

Form field: reported recombinant UMI read abundance (log10) of CTAGTATCATGGACCGGTTTTCCCGGTAATCCGTATTTGCC (site CTAGTATCTGG)
3.09

Form field: reported recombinant UMI read abundance (log10) of ATTGACACATGGACCGGTTTTCCCGGTAATCCGTATTTGGT (site ATTGACACTAC)
0.911

Form field: reported recombinant UMI read abundance (log10) of CGGGAGTCATGGACCGGTTTTCCCGGTAATCCGTATTTGCC (site CGGGAGTCTCG)
1.51

Form field: reported recombinant UMI read abundance (log10) of CGCCGTACATGGACCGGTTTTCCCGGTAATCCGTATTTGCT (site CGCCGTACTCG)
0.111

Form field: reported recombinant UMI read abundance (log10) of ACCTAGACATGGACCGGTTTTCCCGGTAATCCGTATTTGCG (site ACCTAGACTCT)
0.262

====

test: recombinant UMI read abundance after kanamycin selection (control-corrected) (log10(CPM+1)); higher = more efficient recombination; extreme values may be limits of the assay; sequences stand for … in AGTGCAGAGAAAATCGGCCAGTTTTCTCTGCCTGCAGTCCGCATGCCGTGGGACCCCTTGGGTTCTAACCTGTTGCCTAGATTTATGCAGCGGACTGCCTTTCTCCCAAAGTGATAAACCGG…AGGTTGGTTTCACT; site = the 11-nt donor
Kindly state recombinant UMI read abundance (log10) for each of the entries shown.
Please reply with the value in numeric form only.

Form field: reported recombinant UMI read abundance (log10) of TCGCTGACATGGACCGGTTTTCCCGGTAATCCGTATTTGTA (site TCGCTGACTTA)
1.3

Form field: reported recombinant UMI read abundance (log10) of GCGACGGCATGGACCGGTTTTCCCGGTAATCCGTATTTGTC (site GCGACGGCTGA)
1.84

Form field: reported recombinant UMI read abundance (log10) of AGTATTTCATGGACCGGTTTTCCCGGTAATCCGTATTTGAG (site AGTATTTCTCT)
1.39

Form field: reported recombinant UMI read abundance (log10) of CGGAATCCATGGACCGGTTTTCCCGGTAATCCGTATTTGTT (site CGGGTTCCTAA)
0.0107

Form field: reported recombinant UMI read abundance (log10) of GTACGCACATGGACCGGTTTTCCCGGTAATCCGTATTTGTA (site GTACGCACTTA)
2.17
